- target.of.assay: hGYS1 enzyme (recombinant hGYS1/GN1 protein) (Homo sapiens (Human))
- Sequence (P13807 whole entry): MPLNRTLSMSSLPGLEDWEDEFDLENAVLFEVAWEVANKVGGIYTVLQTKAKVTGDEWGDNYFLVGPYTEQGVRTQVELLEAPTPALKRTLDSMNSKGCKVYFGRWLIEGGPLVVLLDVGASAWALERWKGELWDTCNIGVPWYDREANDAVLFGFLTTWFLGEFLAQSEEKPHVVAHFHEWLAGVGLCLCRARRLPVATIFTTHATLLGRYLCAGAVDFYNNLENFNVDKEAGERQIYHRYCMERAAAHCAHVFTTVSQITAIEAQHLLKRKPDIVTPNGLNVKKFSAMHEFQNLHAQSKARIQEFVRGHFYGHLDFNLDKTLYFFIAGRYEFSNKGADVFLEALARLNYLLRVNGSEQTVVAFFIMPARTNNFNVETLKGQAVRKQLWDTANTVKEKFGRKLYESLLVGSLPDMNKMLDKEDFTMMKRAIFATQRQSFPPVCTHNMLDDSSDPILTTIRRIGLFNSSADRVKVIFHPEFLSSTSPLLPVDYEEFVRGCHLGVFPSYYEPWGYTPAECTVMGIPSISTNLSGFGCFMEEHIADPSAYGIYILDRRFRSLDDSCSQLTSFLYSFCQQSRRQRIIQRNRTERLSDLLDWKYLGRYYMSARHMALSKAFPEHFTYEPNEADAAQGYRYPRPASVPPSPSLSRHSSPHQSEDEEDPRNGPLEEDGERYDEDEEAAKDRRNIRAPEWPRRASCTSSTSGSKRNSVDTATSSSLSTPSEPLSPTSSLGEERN
- Sequence (P46976 whole entry partner): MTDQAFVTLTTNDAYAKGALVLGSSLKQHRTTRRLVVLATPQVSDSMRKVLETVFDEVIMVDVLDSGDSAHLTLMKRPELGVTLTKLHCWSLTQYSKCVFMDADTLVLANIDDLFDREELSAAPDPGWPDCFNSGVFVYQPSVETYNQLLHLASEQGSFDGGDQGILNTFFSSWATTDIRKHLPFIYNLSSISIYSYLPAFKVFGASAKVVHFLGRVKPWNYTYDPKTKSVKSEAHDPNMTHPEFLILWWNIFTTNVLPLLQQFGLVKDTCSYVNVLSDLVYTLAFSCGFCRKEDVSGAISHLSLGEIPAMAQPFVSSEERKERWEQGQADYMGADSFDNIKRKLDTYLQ
- assay.remarks: GYS1 coupled enzyme assay (PK/LDH)
- run.conditions: hGYS1/GN1 50 nM, UDP-Glucose 0.8 mM, G6P 1 mM; geometric mean of at least 2 runs
pIC50: −log10 of the molar value.

| compound | pIC50 |
| --- | --- |
| CC(=O)N(CC(N)=O)CC(=O)N1C[C@H](F)C[C@H]1C(=O)N[C@@H](c1ccccc1)c1ccc(C(C)C)cc1 [Compound 189] | 7.02 |
| CC(C)c1ccc(C(NC(=O)[C@@H]2C[C@@H](F)CN2C(=O)Cc2cnn[nH]2)c2ccn3cncc3c2)nc1F (single isomer, unassigned) [Compound 631] | 6.75 |
| CC(C)c1ccc([C@@H](NC(=O)[C@@H]2C[C@@H](F)CN2C(=O)Cc2nn(C)c(=O)[nH]2)c2ccccc2)nc1F [Compound 397] | 8.05 |
| O=C(N[C@@H](c1ccccc1)c1ccc(C2CC(F)(F)C2)c(F)n1)[C@@H]1C[C@@H](F)CN1C(=O)Cc1c[nH]c(=O)cn1 [Compound 530] | 7.92 |
